Experimental System: T1, 人皮肤成纤维细胞(HDF)上的IL-17RA (UniProt Q96F46 33-866, limits assumed)
T1 sequence (looked up): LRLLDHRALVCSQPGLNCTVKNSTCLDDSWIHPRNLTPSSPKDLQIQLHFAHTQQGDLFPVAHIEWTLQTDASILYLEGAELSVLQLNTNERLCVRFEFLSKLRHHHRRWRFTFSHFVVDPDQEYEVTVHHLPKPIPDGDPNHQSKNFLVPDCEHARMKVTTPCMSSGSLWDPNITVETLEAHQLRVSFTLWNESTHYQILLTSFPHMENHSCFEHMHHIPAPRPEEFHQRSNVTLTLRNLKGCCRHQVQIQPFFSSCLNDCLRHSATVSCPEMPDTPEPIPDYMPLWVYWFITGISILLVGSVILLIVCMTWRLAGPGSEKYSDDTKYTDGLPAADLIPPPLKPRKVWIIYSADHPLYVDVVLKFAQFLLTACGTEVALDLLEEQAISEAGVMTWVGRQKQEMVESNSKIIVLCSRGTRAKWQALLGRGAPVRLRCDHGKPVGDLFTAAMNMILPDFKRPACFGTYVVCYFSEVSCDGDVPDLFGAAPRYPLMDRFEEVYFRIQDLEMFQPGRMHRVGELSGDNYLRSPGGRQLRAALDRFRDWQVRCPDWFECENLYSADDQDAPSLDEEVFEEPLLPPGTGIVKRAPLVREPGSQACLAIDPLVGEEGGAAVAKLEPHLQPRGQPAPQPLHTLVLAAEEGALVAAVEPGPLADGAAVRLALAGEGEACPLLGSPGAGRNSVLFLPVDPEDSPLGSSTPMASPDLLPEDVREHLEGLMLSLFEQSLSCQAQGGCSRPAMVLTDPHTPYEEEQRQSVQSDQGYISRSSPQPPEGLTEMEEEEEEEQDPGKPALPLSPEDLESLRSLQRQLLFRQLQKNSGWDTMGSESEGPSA
Assay Procedure: cell-based or functional assay

[
  {
    "Binder": "mAb-9全抗体 (antibody, human IgG1, kappa, V domains shown) VH: QVQLVQSGAEVKKPGASVKVSCKASGYTWTSYGISWVRQAPGQGLEWMGWISTYSGNTNYAKKFLGRVTMTTDTSTSTAYMELRSLRSDDTAVYYCARRVLRLDYWGQGTLVTVSS VL: DIQMTQSPSSLSASVGDRVTITCRASQSVHTGLNWYQQKPGKAPKLLIYGASNLQSGVPSRFSGSGSGTDFTLTISSLQPEDFATYYCQQFEHNPLTFGQGIKVEIKR",
    "抑制HDF细胞产生IL-6 IC50(ng/ml)": "24.8 ng/mL"
  },
  {
    "Binder": "mAb-5全抗体 (antibody, human IgG1, kappa, V domains shown) VH: QVQLVQSGAEVKKPGASVKVSCKASGFAFTRYGISWVRQAPGQGLEWMGWISTYSGNTNYADQFIGRVTMTTDTSTSTAYMELRSLRSDDTAVYYCARRVLRLDYWGQGTLVTVSS VL: DIQMTQSPSSLSASVGDRVTITCRASQDIDSSLNWYQQKPGKAPKLLIYAASNRESGVPSRFSGSGSGTDFTLTISSLQPEDFATYYCQQWANMPGTFGQGTKVEIKR",
    "抑制HDF细胞产生IL-6 IC50(ng/ml)": "22.9 ng/mL"
  },
  {
    "Binder": "mAb-1全抗体 (antibody, human IgG1, kappa, V domains shown) VH: QVQLVQSGAEVKKPGASVKVSCKASGYSYSNYGISWVRQAPGQGLEWMGWISTYSGNTNYSKKLKGRVTMTTDTSTSTAYMELRSLRSDDTAVYYCARRVLRLDYWGQGTLVTVSS VL: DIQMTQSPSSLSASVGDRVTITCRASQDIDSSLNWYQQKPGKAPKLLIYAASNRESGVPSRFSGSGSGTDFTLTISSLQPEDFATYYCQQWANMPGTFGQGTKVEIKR",
    "抑制HDF细胞产生IL-6 IC50(ng/ml)": "28.4 ng/mL"
  }
]
